- System: NCI-H322M lung
- TEST_DESCRIPTION: NCI-60 one-dose screen, 48 h (100 = growth as untreated, 0 = no growth, -100 = all killed)
- PARTICULARS: 10 µM unless noted
The panel holds about 83,000 compounds, 20% with a hit somewhere; the sample as a whole holds those more often.
Recorded measurements of growth, one per entry

MOLECULAR_STRING	growth / %
Cc1ccc(/C=C/C(=O)Nc2ncc(Cc3ccc(F)cc3)s2)o1	59.4
C=C(C)[C@@H]1CC[C@]2(COC(C)=O)CC[C@]3(C)[C@H](CC[C@@H]4[C@@]5(C)CCCN(C(C)=O)C(C)(C)[C@@H]5CC[C@]43C)[C@@H]12	61.3
COc1ccccc1C(=O)Nc1cccc(NC(=O)c2ccoc2C)c1	59.5
